Property Label: flash point (°C)
Quick reminder: number only, in °C, skip the unit.

Guide cases for flash point, answers given:
INSERT INTO assay_data (compound, property_label, value_unit, recorded_result) VALUES
  ('CCNCC', 'flash point', '°C', -29.00),
  ('COC(=O)CC(C)=O [methyl 3-oxobutanoate]', 'flash point', '°C', 70.00),
  ('C=CC#N', 'flash point', '°C', 0.00),
  ('CCC=O', 'flash point', '°C', -9.00);

May I ask what flash point has been recorded for O=[N+]([O-])c1c(Cl)c(Cl)c(Cl)c(Cl)c1Cl ?
127.00

May I ask what flash point has been recorded for C=Cc1cccc(C)c1 ?
60.00

# credit: a flash point compilation (Sun et al. 2020)
